# PROTOCOL CONDITIONS: 298.15 K; 101.33 kPa; Liquid; Vibrating tube method
mass density below 900 kg/m3 gives not fulfilled; mass density at or above it gives fulfilled.

COCCOC = not fulfilled
C1COCCO1 = fulfilled
CCOCCOCC = not fulfilled
C[S+](C)[O-] [dimethyl sulfoxide] = fulfilled

I'd appreciate it if you could say whether C1COCO1 has mass density at least equal to 900 kg/m3.
fulfilled

----------
# PROTOCOL SUMMARY: molar heat capacity at constant pressure
# PROTOCOL CONDITIONS: 298.15 K; 101.33 kPa; Liquid; Small sample (50 mg) DSC
Property: molar heat capacity at constant pressure; scope: individual compounds
Write the answer as a number in J/K/mol, unit excluded.

COCCOC = 191
C1CCOC1 [tetrahydrofuran] = 126.4
C[S+](C)[O-] [dimethyl sulfoxide] = 152.4
C1COCO1 = 121.7
CCOCCOCC = 257.5

For the compound C1COCCO1 , give its measured molar heat capacity at constant pressure value.
151

For the compound C1CCOCC1 [tetrahydropyran] , give its measured molar heat capacity at constant pressure value.
147.9

----------
# PROTOCOL SUMMARY: molar heat capacity at constant pressure
# PROTOCOL CONDITIONS: 303.15 K; 101.33 kPa; Liquid; Small sample (50 mg) DSC
RECORDED ENDPOINT: molar heat capacity at constant pressure (J/K/mol)
Write the answer as a number in J/K/mol, unit excluded.

For the compound COCCOC , give its measured molar heat capacity at constant pressure value.
192.2

For the compound C1COCO1 , give its measured molar heat capacity at constant pressure value.
123.3

----------
Property: molar heat capacity at constant pressure; scope: individual compounds
# PROTOCOL SUMMARY: molar heat capacity at constant pressure
# PROTOCOL CONDITIONS: 318.15 K; 101.33 kPa; Liquid; Small sample (50 mg) DSC
Write the answer as a number in J/K/mol, unit excluded.

Please review the entries below; each comes with its answer.
C1CCOC1 [tetrahydrofuran] = 135.2
C1COCO1 = 126.8

For the compound COCCOC , give its measured molar heat capacity at constant pressure value.
195.8

For the compound C[S+](C)[O-] [dimethyl sulfoxide] , give its measured molar heat capacity at constant pressure value.
156.6

For the compound C1COCCO1 , give its measured molar heat capacity at constant pressure value.
156.5

For the compound C1CCOCC1 [tetrahydropyran] , give its measured molar heat capacity at constant pressure value.
156.5

For the compound CCOCCOCC , give its measured molar heat capacity at constant pressure value.
261.2

----------
# PROTOCOL SUMMARY: molar heat capacity at constant pressure
# PROTOCOL CONDITIONS: 288.15 K; 101.33 kPa; Liquid; Small sample (50 mg) DSC
RECORDED ENDPOINT: molar heat capacity at constant pressure (J/K/mol)
Write the answer as a number in J/K/mol, unit excluded.

Please review the entries below; each comes with its answer.
CCOCCOCC = 254.5
C1CCOC1 [tetrahydrofuran] = 121.1
COCCOC = 188.7
C1COCCO1 = 146.7
C1COCO1 = 118.8

// below: molar heat capacity at constant pressure requested for another compound
For the compound C1CCOCC1 [tetrahydropyran] , give its measured molar heat capacity at constant pressure value.
143.9
